B1: H2-Kb / F5 (parent)
chain 1: GDSVTQTEGLVTLTEGLPVMLNCTYQSTYSPFLFWYVQHLNEAPKLLLKSFTDNKRPEHQGFHATLHKSSSSFHLQKSSAQLSDSALYYCALSPSNMGYKLTFGTGTSLLVDP
chain 2: EAAVTQSPRNKVAVTGGKVTLSCNQTNNHNNMYWYRQDTGHGLRLIHYSYGAGSTEKGDIPDGYKASRPSQENFSLILELATPSQTSVYFCASGDASEQYFGPGTRLTVL
chain 3: not shown
chain 4: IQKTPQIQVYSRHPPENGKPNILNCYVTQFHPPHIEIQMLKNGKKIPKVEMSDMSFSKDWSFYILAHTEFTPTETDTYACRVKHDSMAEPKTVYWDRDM
chain 5: SIINFEKL

variants of: B1; assay: % of reporter cells activated (NFAT-GFP), raw; conditions: with F5; scale: % of reporter cells activated; also: test concentration or dose not given here
measuredProperty: ratio to parent

1) chain 5 L8W = 0.292
2) chain 5 N4Y = 0.307

I. chain 5 L8T
II. chain 5 L8H
III. chain 5 S1P
IV. chain 5 N4E
With regard to ratio to parent, arrange the entries in ascending order, please. // ordering of labels required in reply
IV, III, I, II

1. chain 5 L8M
2. chain 5 F5L
3. chain 5 E6Q
4. chain 5 F5V
With regard to ratio to parent, arrange the entries in ascending order, please. // ordering of labels required in reply
3, 1, 2, 4

I. chain 5 I2P
II. chain 5 F5S
Please state the entry with greater ratio to parent among I and II . Mark your selection by writing its label.
II
